target: free FIXa (activated Factor IX) (UniProt P00740 47-191; P00740 227-461); assay: BLI
I'd be grateful if you could share measured pKd for these entries.
// field semantics: pKd = negative decimal log of concentration (mol/L)

Recorded pKd of BIIB-9-469 (antibody, V domains shown) VH: QVQLVQSGAEVKKPGASVKVSCKASGYTFTSYYMHWVRQAPGQGLEWMGIINPSGGSTSYAQKFQGRVTMTRDTSTSTVYMELSSLRSEDTAVYYCARDLGYGRSYDFDLWGRGTLVTVSS VL: EIVMTQSPATLSVSPGERATLSCRASQSVSSNLAWYQQKPGQAPRLLIFGASTRATGIPARFSGSGSGTEFTLTISSLQSEDFAVYYCQQSNNFPFTFGGGTKVEIK , please.
7.88

Entry BIIB-9-1283 (antibody, V domains shown) VH: QVQLVQSGAEVKKPGASVKVSCKASGYTFTSYYMVWVRQAPGQGLEWMGIINPSGGSTSYAQKFQGRVTMTRDTSTSTVYMELSSLRSEDTAVYYCARVPTYRYSYLAFDIWGQGTMVTVSS VL: DIQMTQSPSSVSASVGDRVTITCRASQGISSWLAWYQQKPGKAPKLLIYAASSLQSGVPSRFSGSGSGTDFTLTISSLQPEDFATYYCQQASSFPPTFGGGTKVEIK : reported pKd = ?
7.43

Hey, just so you know, these numbers are from patent US20230192896A1.
